Target: F508delCFTR (Homo sapiens, UniProt P13569, DEL508-508)
Construct: expressed in transfected cells; host or cells: CFBE41o- human lung-derived epithelial cells (CFBE4lo-F508delCFTR-HRP), doxycycline-inducible
Sequence (P13569 with tags, fused parts or gaps DEL508-508): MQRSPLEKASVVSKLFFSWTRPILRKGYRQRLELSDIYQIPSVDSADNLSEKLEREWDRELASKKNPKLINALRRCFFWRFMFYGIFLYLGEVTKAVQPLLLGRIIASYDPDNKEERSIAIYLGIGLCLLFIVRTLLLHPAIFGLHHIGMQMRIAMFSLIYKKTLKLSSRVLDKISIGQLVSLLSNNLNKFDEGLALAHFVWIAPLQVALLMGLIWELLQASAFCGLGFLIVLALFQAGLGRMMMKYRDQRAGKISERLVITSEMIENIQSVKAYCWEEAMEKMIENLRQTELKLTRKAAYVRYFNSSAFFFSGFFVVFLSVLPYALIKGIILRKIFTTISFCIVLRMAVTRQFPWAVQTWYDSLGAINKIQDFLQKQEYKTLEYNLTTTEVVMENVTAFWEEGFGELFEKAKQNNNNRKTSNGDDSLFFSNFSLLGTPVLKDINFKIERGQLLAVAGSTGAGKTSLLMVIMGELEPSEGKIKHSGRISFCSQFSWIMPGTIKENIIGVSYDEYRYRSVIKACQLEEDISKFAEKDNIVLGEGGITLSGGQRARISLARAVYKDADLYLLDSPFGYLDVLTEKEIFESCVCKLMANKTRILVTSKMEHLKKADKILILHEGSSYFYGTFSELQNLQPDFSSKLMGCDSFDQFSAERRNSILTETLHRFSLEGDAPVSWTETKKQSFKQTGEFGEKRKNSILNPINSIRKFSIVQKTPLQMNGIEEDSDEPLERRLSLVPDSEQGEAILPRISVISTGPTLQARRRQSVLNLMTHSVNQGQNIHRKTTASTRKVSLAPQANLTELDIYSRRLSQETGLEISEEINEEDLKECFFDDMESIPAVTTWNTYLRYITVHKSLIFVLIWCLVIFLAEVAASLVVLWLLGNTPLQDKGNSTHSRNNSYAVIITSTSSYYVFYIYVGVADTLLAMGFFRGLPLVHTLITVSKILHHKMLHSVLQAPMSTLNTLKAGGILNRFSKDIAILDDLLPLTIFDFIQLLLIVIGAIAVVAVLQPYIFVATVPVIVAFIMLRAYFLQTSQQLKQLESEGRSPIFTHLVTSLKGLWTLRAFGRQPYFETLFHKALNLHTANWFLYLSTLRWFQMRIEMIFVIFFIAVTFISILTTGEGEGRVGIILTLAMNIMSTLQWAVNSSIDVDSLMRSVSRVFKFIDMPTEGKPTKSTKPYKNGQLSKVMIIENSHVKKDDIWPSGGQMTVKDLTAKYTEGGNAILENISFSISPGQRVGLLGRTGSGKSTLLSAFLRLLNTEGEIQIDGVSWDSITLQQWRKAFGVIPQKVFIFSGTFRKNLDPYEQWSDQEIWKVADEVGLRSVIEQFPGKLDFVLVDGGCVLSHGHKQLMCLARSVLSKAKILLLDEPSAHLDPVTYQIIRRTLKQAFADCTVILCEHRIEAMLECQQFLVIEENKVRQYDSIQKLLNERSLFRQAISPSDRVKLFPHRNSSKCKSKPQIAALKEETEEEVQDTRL
Experiment: Cell Surface Expression-Horse Radish Peroxidase (CSE-HRP) Assay
Format: cell-based
Settings: test compound without co-corrector; read-out: EC50 (without co-corrector)
Procedure: Cell Surface Expression-Horse Radish Peroxidase (CSE-HRP) Assay The development was achieved by expressing the F508delCFTR mutation along with a horseradish peroxidase (HRP) in the fourth exofacial loop, and then measuring the HRP activity using luminescence readout from these cells, CFBE4lo-F508delCFTR-HRP, that were incubated overnight with the test corrector compounds, either without or with the co-corrector. […] The raw counts from the experiment were analyzed using Accelrys® Assay Explorer v3.3. […]
pEC50: −log10 of the molar value.
PROPERTY LABEL: pEC50

Identify the reported pEC50 for the following entry. COc1ccc(C2(C(F)(F)F)CC2)cc1CN[C@H]1[C@H](C(C)(C)C)[C@@H](C(=O)O)N(C(=O)C2CCCCC2)[C@H]1c1ccccc1 [Example 33]
5.00 to 6.00

Tell us which pEC50 value is on record for COc1ccc(C(C)(C)C)cc1CN[C@H]1[C@H](C(C)(C)C)[C@@H](C(=O)O)N(C(=O)[C@H]2C[C@@H]3CC[C@H]2O3)[C@H]1c1ccccc1 [II-543]
5.00 to 6.00

Provide measured pEC50 value, entry: COc1nc(C(C)(C)C)ccc1CN[C@H]1[C@H](C(C)(C)C)[C@@H](C(=O)O)N(C(=O)OC(C)C)[C@H]1c1cccnc1OC [Example I-234]
5.00 to 6.00

Please report the measured pEC50 for COc1ncc(C2CCC2)cc1CN[C@H]1[C@H](C23CC(C2)C3)[C@@H](C(=O)O)N(C(=O)OC(C)C)[C@H]1c1ccccc1 [Example I-236]
5.00 to 6.00

Specify pEC50 for COc1ncc(C(F)(F)F)cc1N[C@H]1[C@H](C(C)(C)C)[C@@H](C(=O)O)N(C(=O)C2CCCCC2)[C@H]1c1ccccc1 [Example 114] and stop.
> 6.00

Report pEC50 for COc1ccc(C(F)(F)F)c(CN[C@@H]2[C@@H](C(C)(C)C)[C@H](C(=O)O)N(C(=O)C3CCCCC3)[C@@H]2c2ccccc2)c1 (racemic) [III-106]
5.00 to 6.00

Specify measured pEC50 for COc1ccc(C(C)(C)C)cc1CN[C@H]1[C@H](C(C)(C)C)[C@@H](C(=O)O)N(C(=O)[C@H]2CCCCO2)[C@H]1c1ccccc1 [II-451] .
5.00 to 6.00

Identify measured pEC50 corresponding to COc1cc2c(cc1CN[C@H]1[C@H](C(C)(C)C)[C@@H](C(=O)O)N(C(=O)OC(C)C)[C@H]1c1cccnc1OC(C)C)CCC2 [II-574]
5.00 to 6.00

Please report the measured pEC50 for CC(C)(C)[C@@H]1[C@@H](Nc2cc(C#N)ccn2)[C@@H](c2ccccc2)N(C(=O)C2CCCCC2)[C@H]1C(=O)O (racemic) [III-42]
5.00 to 6.00

Please give the documented pEC50 of COc1ccc(C(C)(C)C)cc1CN[C@H]1[C@H](C(C)(C)C)[C@@H](C(=O)O)N(C(=O)C2CCCCC2)[C@H]1c1cccnc1N(C)C [Example I-52]
> 6.00

Tell me its pEC50 given COc1ccccc1CN[C@@H]1[C@@H](C(C)(C)C)[C@H](C(=O)O)N(C(=O)C2CCCCC2)[C@@H]1c1ccccc1 (racemic) [III-12] as the entry.
5.00 to 6.00

Identify the reported pEC50 for the following entry. COc1ccc(CC(C)C)cc1CN[C@H]1[C@H](C(C)(C)C)[C@@H](C(=O)O)N(C(=O)C2CCCCC2)[C@H]1c1ccccc1 [Example I-94]
> 6.00
